# protocol: Plasma concentrations (PK), Example 1
# Assay type: in vivo, human
# run parameters: human, plasma, oral, 100 mg, weight >90 kg, 100 mg BID, Week 12, Peak; read-out: Plasma concentration, Median
readout type: level at 2016 h (ng/mL)
Quick reminder: number only, in ng/mL, skip the unit.

The compound identified as CC(=O)NCCCC[C@@H]1NC(=O)[C@H](Cc2c[nH]c3c(C)cccc23)NC(=O)[C@H]([C@@H](C)O)NC(=O)[C@H](CC(N)=O)NC(=O)[C@@H](NC(C)=O)C(C)(C)SSC(C)(C)[C@@H](C(=O)N[C@@H](Cc2ccc(OCCN)cc2)C(=O)N[C@@H](Cc2ccc3ccccc3c2)C(=O)NC2(C(=O)N[C@@H](CCC(=O)O)C(=O)N[C@@H](CC(N)=O)C(=O)N[C@@H](Cc3cccnc3)C(=O)N(C)CC(N)=O)CCOCC2)NC1=O [IL-23 receptor antagonist peptide] registered its level at 2016 h at 1.29

###

# protocol: Plasma concentrations (PK), Example 1
# Format: in vivo, human
# run parameters: human, plasma, oral, 100 mg, 100 mg BID; Week 8; Intermediate; read-out: Plasma concentration, Geometric Mean
readout type: level at 1344 h (ng/mL)
Quick reminder: number only, in ng/mL, skip the unit.

The compound identified as CC(=O)NCCCC[C@@H]1NC(=O)[C@H](Cc2c[nH]c3c(C)cccc23)NC(=O)[C@H]([C@@H](C)O)NC(=O)[C@H](CC(N)=O)NC(=O)[C@@H](NC(C)=O)C(C)(C)SSC(C)(C)[C@@H](C(=O)N[C@@H](Cc2ccc(OCCN)cc2)C(=O)N[C@@H](Cc2ccc3ccccc3c2)C(=O)NC2(C(=O)N[C@@H](CCC(=O)O)C(=O)N[C@@H](CC(N)=O)C(=O)N[C@@H](Cc3cccnc3)C(=O)N(C)CC(N)=O)CCOCC2)NC1=O [IL-23 receptor antagonist peptide] registered its level at 1344 h at 0.675

###

# protocol: Plasma concentrations (PK), Example 1
# Assay type: in vivo, human
# run parameters: human, plasma, oral, 100 mg, 100 mg QD; Week 8; Intermediate; read-out: Plasma concentration, Mean
readout type: level at 1344 h (ng/mL)
Quick reminder: number only, in ng/mL, skip the unit.

The compound identified as CC(=O)NCCCC[C@@H]1NC(=O)[C@H](Cc2c[nH]c3c(C)cccc23)NC(=O)[C@H]([C@@H](C)O)NC(=O)[C@H](CC(N)=O)NC(=O)[C@@H](NC(C)=O)C(C)(C)SSC(C)(C)[C@@H](C(=O)N[C@@H](Cc2ccc(OCCN)cc2)C(=O)N[C@@H](Cc2ccc3ccccc3c2)C(=O)NC2(C(=O)N[C@@H](CCC(=O)O)C(=O)N[C@@H](CC(N)=O)C(=O)N[C@@H](Cc3cccnc3)C(=O)N(C)CC(N)=O)CCOCC2)NC1=O [IL-23 receptor antagonist peptide] registered its level at 1344 h at 0.235

###

# protocol: Plasma concentrations (PK), Example 1
# Type: in vivo, human
# run parameters: human, plasma, oral, 100 mg, weight >90 kg, 100 mg QD, Week 12, Peak; read-out: Plasma concentration, Mean
readout type: level at 2016 h (ng/mL)
Quick reminder: number only, in ng/mL, skip the unit.

The molecule identified as CC(=O)NCCCC[C@@H]1NC(=O)[C@H](Cc2c[nH]c3c(C)cccc23)NC(=O)[C@H]([C@@H](C)O)NC(=O)[C@H](CC(N)=O)NC(=O)[C@@H](NC(C)=O)C(C)(C)SSC(C)(C)[C@@H](C(=O)N[C@@H](Cc2ccc(OCCN)cc2)C(=O)N[C@@H](Cc2ccc3ccccc3c2)C(=O)NC2(C(=O)N[C@@H](CCC(=O)O)C(=O)N[C@@H](CC(N)=O)C(=O)N[C@@H](Cc3cccnc3)C(=O)N(C)CC(N)=O)CCOCC2)NC1=O [IL-23 receptor antagonist peptide] registered its level at 2016 h at 1.04

###

# protocol: Plasma concentrations (PK), Example 1
# Assay type: in vivo, human
# run parameters: human, plasma, oral, 100 mg, 100 mg QD; Week 8; Intermediate; read-out: Plasma concentration, Median
readout type: level at 1344 h (ng/mL)
Quick reminder: number only, in ng/mL, skip the unit.

The compound identified as CC(=O)NCCCC[C@@H]1NC(=O)[C@H](Cc2c[nH]c3c(C)cccc23)NC(=O)[C@H]([C@@H](C)O)NC(=O)[C@H](CC(N)=O)NC(=O)[C@@H](NC(C)=O)C(C)(C)SSC(C)(C)[C@@H](C(=O)N[C@@H](Cc2ccc(OCCN)cc2)C(=O)N[C@@H](Cc2ccc3ccccc3c2)C(=O)NC2(C(=O)N[C@@H](CCC(=O)O)C(=O)N[C@@H](CC(N)=O)C(=O)N[C@@H](Cc3cccnc3)C(=O)N(C)CC(N)=O)CCOCC2)NC1=O [IL-23 receptor antagonist peptide] registered its level at 1344 h at 0.235

###

# protocol: Plasma concentrations (PK), Example 1
# Type: in vivo, human
# run parameters: human, plasma, oral, 25 mg, weight >90 kg, 25 mg QD, Week 16, Intermediate; read-out: Plasma concentration, Mean
readout type: level at 2688 h
The reply should read as a number followed by its unit.

The molecule identified as CC(=O)NCCCC[C@@H]1NC(=O)[C@H](Cc2c[nH]c3c(C)cccc23)NC(=O)[C@H]([C@@H](C)O)NC(=O)[C@H](CC(N)=O)NC(=O)[C@@H](NC(C)=O)C(C)(C)SSC(C)(C)[C@@H](C(=O)N[C@@H](Cc2ccc(OCCN)cc2)C(=O)N[C@@H](Cc2ccc3ccccc3c2)C(=O)NC2(C(=O)N[C@@H](CCC(=O)O)C(=O)N[C@@H](CC(N)=O)C(=O)N[C@@H](Cc3cccnc3)C(=O)N(C)CC(N)=O)CCOCC2)NC1=O [IL-23 receptor antagonist peptide] registered its level at 2688 h at 0.165 ng/mL

###

# protocol: Plasma concentrations (PK), Example 1
# Type: in vivo, human
# run parameters: human, plasma, oral, 100 mg, 100 mg QD; Week 4; Peak; read-out: Plasma concentration, Geometric Mean
readout type: level at 672 h (ng/mL)
Quick reminder: number only, in ng/mL, skip the unit.

The molecule identified as CC(=O)NCCCC[C@@H]1NC(=O)[C@H](Cc2c[nH]c3c(C)cccc23)NC(=O)[C@H]([C@@H](C)O)NC(=O)[C@H](CC(N)=O)NC(=O)[C@@H](NC(C)=O)C(C)(C)SSC(C)(C)[C@@H](C(=O)N[C@@H](Cc2ccc(OCCN)cc2)C(=O)N[C@@H](Cc2ccc3ccccc3c2)C(=O)NC2(C(=O)N[C@@H](CCC(=O)O)C(=O)N[C@@H](CC(N)=O)C(=O)N[C@@H](Cc3cccnc3)C(=O)N(C)CC(N)=O)CCOCC2)NC1=O [IL-23 receptor antagonist peptide] registered its level at 672 h at 0.968

###

# protocol: Plasma concentrations (PK), Example 1
# Type: in vivo, human
# run parameters: human, plasma, oral, 100 mg, 100 mg BID; Week 4; Peak; read-out: Plasma concentration, Geometric Mean
readout type: level at 672 h (ng/mL)
Quick reminder: number only, in ng/mL, skip the unit.

The compound identified as CC(=O)NCCCC[C@@H]1NC(=O)[C@H](Cc2c[nH]c3c(C)cccc23)NC(=O)[C@H]([C@@H](C)O)NC(=O)[C@H](CC(N)=O)NC(=O)[C@@H](NC(C)=O)C(C)(C)SSC(C)(C)[C@@H](C(=O)N[C@@H](Cc2ccc(OCCN)cc2)C(=O)N[C@@H](Cc2ccc3ccccc3c2)C(=O)NC2(C(=O)N[C@@H](CCC(=O)O)C(=O)N[C@@H](CC(N)=O)C(=O)N[C@@H](Cc3cccnc3)C(=O)N(C)CC(N)=O)CCOCC2)NC1=O [IL-23 receptor antagonist peptide] registered its level at 672 h at 1.7

###

# protocol: Plasma concentrations (PK), Example 1
# Assay type: in vivo, human
# run parameters: human, plasma, oral, 100 mg, 100 mg BID; Week 4; Peak; read-out: Plasma concentration, Mean
readout type: level at 672 h (ng/mL)
Quick reminder: number only, in ng/mL, skip the unit.

The compound identified as CC(=O)NCCCC[C@@H]1NC(=O)[C@H](Cc2c[nH]c3c(C)cccc23)NC(=O)[C@H]([C@@H](C)O)NC(=O)[C@H](CC(N)=O)NC(=O)[C@@H](NC(C)=O)C(C)(C)SSC(C)(C)[C@@H](C(=O)N[C@@H](Cc2ccc(OCCN)cc2)C(=O)N[C@@H](Cc2ccc3ccccc3c2)C(=O)NC2(C(=O)N[C@@H](CCC(=O)O)C(=O)N[C@@H](CC(N)=O)C(=O)N[C@@H](Cc3cccnc3)C(=O)N(C)CC(N)=O)CCOCC2)NC1=O [IL-23 receptor antagonist peptide] registered its level at 672 h at 2.05
